This collection of values is drawn from patent US10662445B2.

Listed compounds paired with reported Inhibitor extraction, phase separation by centrifugal force
# runDescription: Organic-solvent extraction of microbial inhibitors from an agro-waste hydrolysate mimic
# Format: physicochemical
# experimentalSetup: homogenizer rotational speed 200 rpm; solvent bis-(2-ethylhexyl) sebacate
# From the text: […]
endpointLabel: Inhibitor extraction, phase separation by centrifugal force (%)

> print(dat)
                                   compound  observedmeasurement
1                       COc1cc(C(=O)O)ccc1O                   93
2                      COc1cc(C=O)cc(OC)c1O                  100
3                                O=Cc1ccco1                   69
4                  COc1cc(/C=C/C(=O)O)ccc1O                   96
5  O=Cc1ccc(CO)o1 [HMF, hydroxymethyl furfural]                   74
6                          COc1cc(C=O)ccc1O                   95

* * *

Listed compounds paired with reported Inhibitor extraction, phase separation by separating funnel
# runDescription: Organic-solvent extraction of microbial inhibitors from an agro-waste hydrolysate mimic
# Type: physicochemical
# experimentalSetup: homogenizer rotational speed 400 rpm; solvent bis-(2-ethylhexyl) sebacate
endpointLabel: Inhibitor extraction, phase separation by separating funnel (%)

> print(dat)
                                   compound  observedmeasurement
1  COc1cc(C=O)cc(OC)c1O [Syringaldehyde, syringaldehyde]                  100
2  COc1cc(C(=O)O)ccc1O [Vanillic acid, vanillic acid]                   93
3           O=Cc1ccco1 [Furfural, furfural]                   78
4  COc1cc(/C=C/C(=O)O)ccc1O [Ferulic acid, ferulic acid]                   96
5  O=Cc1ccc(CO)o1 [HMF, hydroxymethyl furfural]                   80
6     COc1cc(C=O)ccc1O [Vanillin, vanillin]                   97

* * *

Listed compounds paired with reported Inhibitor extraction, phase separation by centrifugal force
# runDescription: Organic-solvent extraction of microbial inhibitors from an agro-waste hydrolysate mimic
# Assay type: physicochemical
# experimentalSetup: homogenizer rotational speed 250 rpm; solvent bis-(2-ethylhexyl) sebacate
endpointLabel: Inhibitor extraction, phase separation by centrifugal force (%)

> print(dat)
                                   compound  unitabbrev  observedmeasurement
1  O=Cc1ccc(CO)o1 [HMF, hydroxymethyl furfural]           %                   79
2  COc1cc(C=O)cc(OC)c1O [Syringaldehyde, syringaldehyde]           %                  100
3  COc1cc(C(=O)O)ccc1O [Vanillic acid, vanillic acid]           %                   94
4     COc1cc(C=O)ccc1O [Vanillin, vanillin]           %                   97
5           O=Cc1ccco1 [Furfural, furfural]           %                   78
6  COc1cc(/C=C/C(=O)O)ccc1O [Ferulic acid, ferulic acid]           %                   97

* * *

# runDescription: Organic-solvent extraction of microbial inhibitors from an agro-waste hydrolysate mimic
# Assay type: physicochemical
# experimentalSetup: homogenizer rotational speed 300 rpm; solvent bis-(2-ethylhexyl) sebacate
endpointLabel: Inhibitor extraction, phase separation by centrifugal force (%)

> print(dat)
                                   molecule  unitabbrev  observedmeasurement
1                          COc1cc(C=O)ccc1O           %                   97
2                  COc1cc(/C=C/C(=O)O)ccc1O           %                   95
3                                O=Cc1ccco1           %                   78
4                       COc1cc(C(=O)O)ccc1O           %                   94
5                      COc1cc(C=O)cc(OC)c1O           %                  100
6  O=Cc1ccc(CO)o1 [HMF, hydroxymethyl furfural]           %                   82

* * *

# runDescription: Organic-solvent extraction of microbial inhibitors from an agro-waste hydrolysate mimic
# Format: physicochemical
# experimentalSetup: homogenizer rotational speed 200 rpm; solvent bis-(2-ethylhexyl) sebacate
Listed compounds paired with reported Inhibitor extraction, phase separation by separating funnel
endpointLabel: Inhibitor extraction, phase separation by separating funnel (%)

> print(dat)
                                   compound  observedmeasurement
1           O=Cc1ccco1 [Furfural, furfural]                   68
2  COc1cc(C=O)cc(OC)c1O [Syringaldehyde, syringaldehyde]                  100
3     COc1cc(C=O)ccc1O [Vanillin, vanillin]                   93
4  COc1cc(C(=O)O)ccc1O [Vanillic acid, vanillic acid]                   91
5  O=Cc1ccc(CO)o1 [HMF, hydroxymethyl furfural]                   73
6  COc1cc(/C=C/C(=O)O)ccc1O [Ferulic acid, ferulic acid]                   94

* * *

Listed molecules paired with reported Inhibitor extraction, phase separation by centrifugal force
# runDescription: Organic-solvent extraction of microbial inhibitors from an agro-waste hydrolysate mimic
# Format: physicochemical
# experimentalSetup: homogenizer rotational speed 400 rpm; solvent bis-(2-ethylhexyl) sebacate
endpointLabel: Inhibitor extraction, phase separation by centrifugal force

> print(dat)
                                   molecule  observedmeasurement
1           O=Cc1ccco1 [Furfural, furfural]                  80%
2     COc1cc(C=O)ccc1O [Vanillin, vanillin]                  96%
3  O=Cc1ccc(CO)o1 [HMF, hydroxymethyl furfural]                  84%
4  COc1cc(/C=C/C(=O)O)ccc1O [Ferulic acid, ferulic acid]                  97%
5  COc1cc(C(=O)O)ccc1O [Vanillic acid, vanillic acid]                  96%
6  COc1cc(C=O)cc(OC)c1O [Syringaldehyde, syringaldehyde]                 100%

* * *

# runDescription: Organic-solvent extraction of microbial inhibitors from an agro-waste hydrolysate mimic
# Format: physicochemical
# experimentalSetup: homogenizer rotational speed 100 rpm; solvent bis-(2-ethylhexyl) sebacate
Listed molecules paired with reported Inhibitor extraction, phase separation by centrifugal force
endpointLabel: Inhibitor extraction, phase separation by centrifugal force (%)

> print(dat)
                                   molecule  unitabbrev  observedmeasurement
1                       COc1cc(C(=O)O)ccc1O           %                   92
2                  COc1cc(/C=C/C(=O)O)ccc1O           %                   97
3                          COc1cc(C=O)ccc1O           %                   95
4                                O=Cc1ccco1           %                   68
5                      COc1cc(C=O)cc(OC)c1O           %                  100
6  O=Cc1ccc(CO)o1 [HMF, hydroxymethyl furfural]           %                   71

* * *

# runDescription: Organic-solvent extraction of microbial inhibitors from an agro-waste hydrolysate mimic
# Format: physicochemical
# experimentalSetup: homogenizer rotational speed 250 rpm; solvent bis-(2-ethylhexyl) sebacate
endpointLabel: Inhibitor extraction, phase separation by separating funnel (%)

> print(dat)
                                   molecule  unitabbrev  observedmeasurement
1                  COc1cc(/C=C/C(=O)O)ccc1O           %                   93
2                          COc1cc(C=O)ccc1O           %                   95
3                      COc1cc(C=O)cc(OC)c1O           %                  100
4  O=Cc1ccc(CO)o1 [HMF, hydroxymethyl furfural]           %                   78
5                       COc1cc(C(=O)O)ccc1O           %                   93
6                                O=Cc1ccco1           %                   75
